I'd be grateful if you could share measured inhibition at 500 µM for these entries.
target-entity: α-glucosidase (Saccharomyces cerevisiae)
Sequence (P38158 whole entry): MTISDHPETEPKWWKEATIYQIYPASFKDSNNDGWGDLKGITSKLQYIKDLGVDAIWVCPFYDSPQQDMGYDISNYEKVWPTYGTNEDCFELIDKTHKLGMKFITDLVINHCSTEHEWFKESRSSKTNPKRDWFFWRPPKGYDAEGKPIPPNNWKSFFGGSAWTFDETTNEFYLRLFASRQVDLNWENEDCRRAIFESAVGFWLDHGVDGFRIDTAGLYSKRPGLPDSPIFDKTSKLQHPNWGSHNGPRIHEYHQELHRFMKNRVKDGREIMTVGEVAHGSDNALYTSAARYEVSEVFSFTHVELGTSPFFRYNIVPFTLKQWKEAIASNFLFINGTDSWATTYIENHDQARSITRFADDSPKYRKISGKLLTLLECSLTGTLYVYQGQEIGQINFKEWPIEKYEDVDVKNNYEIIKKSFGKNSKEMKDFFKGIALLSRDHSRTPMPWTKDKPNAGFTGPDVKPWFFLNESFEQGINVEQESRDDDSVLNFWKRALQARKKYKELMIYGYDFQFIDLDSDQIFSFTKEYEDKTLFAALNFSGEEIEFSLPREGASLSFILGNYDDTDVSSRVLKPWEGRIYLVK
assay-explanation: In vitro α-glucosidase inhibition assay
Format: biochemical, S. cerevisiae
protocol-conditions: read-out: percent inhibition (0.5 mM)
Give bare numbers, in %.

>  <cpd-smiles>
Oc1ccc(C=Nc2ccc3[nH]c(S)nc3c2)c(O)c1

>  <target-entity>
α-glucosidase (Saccharomyces cerevisiae)

>  <reported-measurement>
95.4

$$$$
>  <cpd-smiles>
Oc1ccc(C=Nc2ccc3[nH]c(S)nc3c2)cc1

>  <target-entity>
α-glucosidase (Saccharomyces cerevisiae)

>  <reported-measurement>
95.7

$$$$
>  <cpd-smiles>
COc1cccc(C=Nc2ccc3[nH]c(S)nc3c2)c1O

>  <target-entity>
α-glucosidase (Saccharomyces cerevisiae)

>  <reported-measurement>
91.3

$$$$

Continue with the next compound.
Exercise: Provide value of inhibition at 500 µM for this record tested with α-glucosidase (Saccharomyces cerevisiae): COc1cc(C=Nc2ccc3[nH]c(S)nc3c2)cc(OC)c1OC
Solution: 94.7
